Source: paper PMC8558838

B1: full-length mouse LIGHT, on cells (mLIGHT-IRES-EGFP) [mouse] / full-length WT mouse HVEM-mCherry, on cells [mouse] (parent complex)
chain 1: MESVVQPSVFVVDGQTDIPFRRLEQNHRRRRCGTVQVSLALVLLLGAGLATQGWFLLRLHQRLGDIVAHLPDGGKGSWEKLIQDQRSHQANPAAHLTGANASLIGIGGPLLWETRLGLAFLRGLTYHDGALVTMEPGYYYVYSKVQLSGVGCPQGLANGLPITHGLYKRTSRYPKELELLVSRRSPCGRANSSRVWWDSSFLGGVVHLEAGEEVVVRVPGNRLVRPRDGTRSYFGAFMV
chain 2: QPSCRQEEFLVGDECCPMCNPGYHVKQVCSEHTGTVCAPCPPQTYTAHANGLSKCLPCGVCDPDMGLLTWQECSSWKDTVCRCIPGYFCENQDGSHCSTCLQHTTCPPGQRVEKRGTHDQDTVCADCLTGTFSLGGTQEECLPWTNCSAFQQEVRRGTNSTDTTCSSQVVYYVVSILLPLVIVGAGIAGFLICTRRHLHTSSVAKELEPFQEQQENTIRFPVTEVGFAETEEETASN

variants of: B1; assay: flow cytometry, cell–cell method
result-type: ratio to parent

chain 2 H48R :: 1

[I] chain 2 S98D
[II] chain 2 M18A
query: Param metric = ratio to parent; output whichever of I , II has the minimum value. // output: label of the selected item
result: I
